Tested on: 786-0 renal
Test: NCI-60 one-dose screen, 48 h (100 = growth as untreated, 0 = no growth, -100 = all killed)
Details: 10 µM unless noted
The panel holds about 83,000 compounds, 20% with a hit somewhere; the sample as a whole holds those more often.
# reported growth; entries follow
parameter: growth (%)

[
  {
    "compound": "Clc1cccc(Cc2cn3cc(-c4ccccc4)nc3s2)c1",
    "test_target": "786-0 renal",
    "result_value": 68.9
  },
  {
    "compound": "CCN(CC)CCOc1ccc(C2=C(c3ccccc3)CCc3cc(OC)ccc32)cc1",
    "test_target": "786-0 renal",
    "result_value": -82.3
  },
  {
    "compound": "Cc1ccc(NC(=O)COC(=O)c2ccc(S(=O)(=O)N3CCCCCC3)cc2)cc1",
    "test_target": "786-0 renal",
    "result_value": 103
  },
  {
    "compound": "COC(=O)CCC1=C(C)C(C)=N/C1=C\\c1[nH]c(-c2ccc[nH]2)cc1OC",
    "test_target": "786-0 renal",
    "result_value": 10.1
  },
  {
    "compound": "Cc1c(C(N)=O)sc2c1c(=O)n(Cc1ccccc1)c1nnc(SCC(=O)Nc3ccc(Cl)cc3)n21",
    "test_target": "786-0 renal",
    "result_value": -41.2
  },
  {
    "compound": "CCN(CC)c1ccc(N=Nc2cc(Cl)ccc2Cl)c(NC(=O)CCC(=O)O)c1",
    "test_target": "786-0 renal",
    "result_value": 108
  },
  {
    "compound": "CC(=O)Oc1ccc(C23c4ccccc4C2(OC(C)=O)c2cc(OC(C)=O)ccc23)cc1 (centres undefined)",
    "test_target": "786-0 renal",
    "result_value": 69.3
  },
  {
    "compound": "Clc1nc(Cl)c2ncn(-c3ccccc3)c2n1",
    "test_target": "786-0 renal",
    "result_value": 88.5
  },
  {
    "compound": "CN1COc2ccc3ccccc3c2C1",
    "test_target": "786-0 renal",
    "result_value": 91
  },
  {
    "compound": "O=C(Nc1cccc(C(F)(F)F)c1)Nc1ccc(OCc2nnc(-c3ccc(Cl)cc3)o2)c(F)c1",
    "test_target": "786-0 renal",
    "result_value": 84.2
  },
  {
    "compound": "O=C(C=C=Nc1ccccc1)C(=O)N=C=Cc1ccccc1",
    "test_target": "786-0 renal",
    "result_value": 79.3
  },
  {
    "compound": "Nc1ccc2c(c1)/C(=N/O)c1cc([N+](=O)[O-])ccc1-2",
    "test_target": "786-0 renal",
    "result_value": 63.1
  },
  {
    "compound": "Cc1nn(-c2ccc(Br)cc2)c2nc3c(nc12)C(=O)C(=O)c1ccccc1-3",
    "test_target": "786-0 renal",
    "result_value": 102
  },
  {
    "compound": "CSc1ncc2ncn(C3OC(CO)C(O)C3O)c2n1 (centres undefined)",
    "test_target": "786-0 renal",
    "result_value": 110
  },
  {
    "compound": "Cc1scc2c1N(C(=O)CN1CCN(C)CC1)c1ccccc1NC2=O",
    "test_target": "786-0 renal",
    "result_value": 98.8
  },
  {
    "compound": "Nc1ccc2c3c(cccc13)-c1ccccc1-2",
    "test_target": "786-0 renal",
    "result_value": 68.4
  },
  {
    "compound": "O=c1cc(-c2cccnc2)oc2c1ccc1ccccc12",
    "test_target": "786-0 renal",
    "result_value": 81.3
  },
  {
    "compound": "Cc1nn(-c2ccccc2)c2nc3c(nc12)C(=O)CCC3",
    "test_target": "786-0 renal",
    "result_value": 88.5
  },
  {
    "compound": "O=C1/C(=C/c2ccc3cccc(Cl)c3n2)SC(=S)N1CCc1ccc(O)cc1",
    "test_target": "786-0 renal",
    "result_value": 94.2
  },
  {
    "compound": "CCC1=C(c2ccc(OC)cc2)C(C)(C)Oc2cc(O)c(CN3CCCC3)cc21",
    "test_target": "786-0 renal",
    "result_value": 59
  },
  {
    "compound": "O=[N+]([O-])c1ccc(Oc2cccc(C(F)(F)F)c2)c([N+](=O)[O-])c1",
    "test_target": "786-0 renal",
    "result_value": 47.5
  },
  {
    "compound": "C=CCOc1ccc2c(c1)CC[C@@H]1[C@@H]2CC[C@@]2(C)[C@H]1CC[C@]2(C)O",
    "test_target": "786-0 renal",
    "result_value": 93.8
  },
  {
    "compound": "Cc1c(C)c(N2C(=O)C=CC2=O)c(C)c(C)c1N1C(=O)C=CC1=O",
    "test_target": "786-0 renal",
    "result_value": 93.2
  },
  {
    "compound": "S=C(Nc1ccc(C2=NCCN2)cc1)Nc1ccc(C2=NCCN2)cc1",
    "test_target": "786-0 renal",
    "result_value": 98.2
  },
  {
    "compound": "CN(C)CCCN1c2nc3ccccc3cc2Sc2cc3ccccc3nc21",
    "test_target": "786-0 renal",
    "result_value": -86.3
  },
  {
    "compound": "O=C(OCCBr)c1ccc(Cl)c([N+](=O)[O-])c1",
    "test_target": "786-0 renal",
    "result_value": 102
  },
  {
    "compound": "CCC1=C(c2ccc(OC)cc2)C(C)Oc2cc(OC(C)=O)ccc21 (centres undefined)",
    "test_target": "786-0 renal",
    "result_value": 101
  },
  {
    "compound": "CCc1[nH]nc(-c2ccc(OC)cc2)c1-c1ccccc1OCCN(CC)CC",
    "test_target": "786-0 renal",
    "result_value": 74.7
  },
  {
    "compound": "ClC1=C(Cl)C(=C2C(Cl)=C(Cl)C(Cl)=C2Cl)C(Cl)=C1Cl",
    "test_target": "786-0 renal",
    "result_value": 103
  },
  {
    "compound": "O=C1N(C2CCCCC2)C(=O)N1C1CCCCC1",
    "test_target": "786-0 renal",
    "result_value": 53.5
  },
  {
    "compound": "COc1c(O)cc2oc3cc(O)c(CC=C(C)C)c(O)c3c(=O)c2c1C/C=C(\\C)CCC=C(C)C",
    "test_target": "786-0 renal",
    "result_value": 30.2
  },
  {
    "compound": "Clc1ccc(-c2nc(-c3cccs3)no2)c(Cl)c1",
    "test_target": "786-0 renal",
    "result_value": 97.4
  },
  {
    "compound": "C=C(C)[C@@H]1C/C=C(/C=O)CC[C@@H]2O[C@@]2(C)CC/C=C(\\C)CC1",
    "test_target": "786-0 renal",
    "result_value": 106
  },
  {
    "compound": "CC(=O)O[C@H]1C(=O)[C@@]2(C)C([C@H](OC(=O)c3ccccc3)[C@]3(O)C[C@H](OC(=O)[C@H](O)[C@@H](NC(=O)c4ccccc4)c4ccccc4)C(C)=C1C3(C)C)[C@]1(OC(C)=O)CO[C@@H]1C[C@@H]2O (some centres undefined)",
    "test_target": "786-0 renal",
    "result_value": 17.6
  }
]
